Where do these numbers come from? They come from PubChem BioAssay (Tox21).

- TARGET OR SYSTEM: Progesterone receptor (Homo sapiens) (UniProt P06401)
- Sequence (P06401 whole entry, looked up): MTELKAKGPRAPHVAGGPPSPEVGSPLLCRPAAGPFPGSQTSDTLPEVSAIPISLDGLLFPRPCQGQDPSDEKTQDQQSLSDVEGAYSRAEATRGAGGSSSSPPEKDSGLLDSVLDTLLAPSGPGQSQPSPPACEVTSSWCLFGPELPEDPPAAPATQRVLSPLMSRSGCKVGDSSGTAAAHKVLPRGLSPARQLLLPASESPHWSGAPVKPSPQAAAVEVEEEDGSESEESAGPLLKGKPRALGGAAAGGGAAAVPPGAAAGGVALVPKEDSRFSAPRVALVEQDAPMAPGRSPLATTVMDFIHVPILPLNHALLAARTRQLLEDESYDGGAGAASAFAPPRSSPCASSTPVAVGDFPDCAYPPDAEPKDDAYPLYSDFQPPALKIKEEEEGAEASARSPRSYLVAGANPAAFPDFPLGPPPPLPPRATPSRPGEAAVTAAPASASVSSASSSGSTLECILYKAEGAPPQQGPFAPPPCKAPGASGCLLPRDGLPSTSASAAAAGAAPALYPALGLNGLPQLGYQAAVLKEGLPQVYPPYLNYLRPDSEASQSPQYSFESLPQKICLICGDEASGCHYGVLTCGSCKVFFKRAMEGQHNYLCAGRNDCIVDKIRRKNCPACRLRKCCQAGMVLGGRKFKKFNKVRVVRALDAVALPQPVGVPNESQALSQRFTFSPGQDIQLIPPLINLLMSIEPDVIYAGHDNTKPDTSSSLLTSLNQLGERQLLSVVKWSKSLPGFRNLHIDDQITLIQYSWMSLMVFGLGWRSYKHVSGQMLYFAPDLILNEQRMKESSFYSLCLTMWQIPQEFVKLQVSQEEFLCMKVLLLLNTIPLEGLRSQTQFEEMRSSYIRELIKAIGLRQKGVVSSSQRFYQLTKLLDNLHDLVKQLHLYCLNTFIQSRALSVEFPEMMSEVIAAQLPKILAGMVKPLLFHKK
- METHOD DESCRIPTION: qHTS assay to identify small molecule antagonists of the progesterone receptor (PR) signaling pathway (AID 1346795)
- MEASUREMENT CONDITIONS: PR-UAS-bla HEK293T, beta-lactamase FRET ratio, 16 h; series mostly up to 92.4 µM
Results filed as inconclusive are left out. The source made the active and inactive calls. Calls follow the shape of the dose curve; as a rule, active = well fitted inhibition curve with a large enough effect in the signal ratio in the repeat runs (not every such curve was filed as active); inconclusive = weak or mixed curves; inactive = flat fitted curve, though single readings scatter; the % refers to the signal ratio.
Classes used: true (1) for active, false (0) for inactive

>  <COMPOUND>
Cc1ccc(C(=O)Oc2ccc(C(O)CNC(C)(C)C)cc2OC(=O)c2ccc(C)cc2)cc1 (stereo unspecified)

>  <ASSIGNED LABEL>
false (0)

$$$$
>  <COMPOUND>
O=C(NCC1CN(c2ccc(N3CCOCC3=O)cc2)C(=O)O1)c1ccc(Cl)s1 (stereo unspecified)

>  <ASSIGNED LABEL>
false (0)

$$$$
>  <COMPOUND>
CCCCC(CC)CN1C(=O)C2C3C=CC(C3)C2C1=O (stereo unspecified)

>  <ASSIGNED LABEL>
true (1)

$$$$
>  <COMPOUND>
C[N+](C)(C)CCOC(=O)CCC(=O)OCC[N+](C)(C)C

>  <ASSIGNED LABEL>
false (0)

$$$$
>  <COMPOUND>
CCCCCCCCCCCc1ccccc1

>  <ASSIGNED LABEL>
false (0)

$$$$
>  <COMPOUND>
COc1ccc(S(=O)(=O)N2C(=O)[C@@](c3ccccc3OC)(N3C[C@H](O)C[C@H]3C(=O)N(C)C)c3cc(Cl)ccc32)c(OC)c1

>  <ASSIGNED LABEL>
true (1)

$$$$
>  <COMPOUND>
CC1=CCCC(C)(C)C12CCC(C)O2 (stereo unspecified)

>  <ASSIGNED LABEL>
false (0)

$$$$
>  <COMPOUND>
O=C(CS)Nc1ccccc1

>  <ASSIGNED LABEL>
false (0)

$$$$
>  <COMPOUND>
CCCCC(=O)OCC(=O)[C@H]1[C@H](C)C[C@H]2[C@@H]3C[C@H](F)C4=CC(=O)C=C[C@]4(C)[C@@]3(F)[C@@H](O)C[C@@]21C

>  <ASSIGNED LABEL>
false (0)

$$$$
>  <COMPOUND>
O=C(NCCO[N+](=O)[O-])c1cccnc1

>  <ASSIGNED LABEL>
false (0)

$$$$
>  <COMPOUND>
O=C(O)c1ccco1

>  <ASSIGNED LABEL>
false (0)

$$$$

###

- TARGET OR SYSTEM: Nuclear receptor subfamily 1 group I member 3 (Homo sapiens) (UniProt Q14994)
- Sequence (Q14994 whole entry, looked up): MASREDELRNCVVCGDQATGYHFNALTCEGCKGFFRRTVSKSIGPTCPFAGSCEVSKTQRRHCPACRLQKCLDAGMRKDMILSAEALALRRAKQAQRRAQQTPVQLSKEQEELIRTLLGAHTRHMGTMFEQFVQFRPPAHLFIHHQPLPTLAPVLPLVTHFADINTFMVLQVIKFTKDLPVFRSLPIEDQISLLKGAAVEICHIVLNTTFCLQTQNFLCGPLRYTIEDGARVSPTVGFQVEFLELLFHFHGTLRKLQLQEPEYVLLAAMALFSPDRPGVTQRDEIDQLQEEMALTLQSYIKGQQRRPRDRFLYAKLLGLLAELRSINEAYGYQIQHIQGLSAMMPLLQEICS
- METHOD DESCRIPTION: qHTS assay to identify small molecule antagonists of the constitutive androstane receptor (CAR) signaling pathway (AID 1224838);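 also: HepG2 cells stably expressing hCAR with CYP2B6 luciferase reporter stimulated by CITCO; nearly all actives have a fitted effect of over 40% in size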
- MEASUREMENT CONDITIONS: HepG2-CYP2B6-hCAR luciferase, CITCO-stimulated, 24 h; series mostly up to 92.4 µM
Results filed as inconclusive are left out. Active and inactive are the calls of the source. The call rests on the fitted dose curve; in most records, active means well fitted inhibition curve with a large enough effect in the repeat runs; inconclusive means weak or mixed curves, or effect the other way; inactive means no such curve, though single readings can be large or run the other way.
Classes used: yes (1) (active), no (0) (inactive)

>  <COMPOUND>
Nc1ccc(S(=O)(=O)Nc2ccccc2)cc1

>  <ASSIGNED LABEL>
no (0)

$$$$
>  <COMPOUND>
Cc1oc2c(NC(=O)c3c(Cl)cccc3Cl)cccc2c1C(C)(C)O

>  <ASSIGNED LABEL>
yes (1)

$$$$
>  <COMPOUND>
C#CCN(C)CCCOc1ccc(Cl)cc1Cl

>  <ASSIGNED LABEL>
no (0)

$$$$
>  <COMPOUND>
CCCCNc1ccc(C(=O)OCCOCCOCCOCCOCCOCCOCCOCCOCCOC)cc1

>  <ASSIGNED LABEL>
no (0)

$$$$
>  <COMPOUND>
CCCCCCCCCCCc1ccccc1

>  <ASSIGNED LABEL>
no (0)

$$$$
>  <COMPOUND>
CCN(CC)c1ccc2c(-c3ccccc3C(=O)O)c3ccc(=[N+](CC)CC)cc-3oc2c1

>  <ASSIGNED LABEL>
no (0)

$$$$
>  <COMPOUND>
CCCCC/C=C\C/C=C\CCCCCCCC(=O)NC(C)c1ccccc1 (stereo not drawn)

>  <ASSIGNED LABEL>
no (0)

$$$$
>  <COMPOUND>
O=C1[C@H]2CCCC[C@H]2C(=O)N1CCCCN1CCN(c2nsc3ccccc23)CC1

>  <ASSIGNED LABEL>
no (0)

$$$$
>  <COMPOUND>
CCN(CC)CCOC(=O)C(Cc1cccc2ccccc12)CC1CCCO1 (stereo not drawn)

>  <ASSIGNED LABEL>
no (0)

$$$$
>  <COMPOUND>
COc1cc2nc(N3CCN(C(=O)C4COc5ccccc5O4)CC3)nc(N)c2cc1OC (stereo not drawn)

>  <ASSIGNED LABEL>
no (0)

$$$$
>  <COMPOUND>
CCCCc1nc2cccnc2n1Cc1ccc(-c2ccccc2-c2nnn[nH]2)cc1

>  <ASSIGNED LABEL>
no (0)

$$$$
>  <COMPOUND>
Brc1c2ccccc2cc2ccccc12

>  <ASSIGNED LABEL>
no (0)

$$$$
>  <COMPOUND>
CCc1c(C(=O)NN2CCCCC2)nn(-c2ccc(Cl)cc2Cl)c1-c1ccc(Br)cc1

>  <ASSIGNED LABEL>
yes (1)

$$$$
>  <COMPOUND>
CN(C)c1ccc(C(c2ccccc2)c2ccc(N(C)C)cc2)cc1

>  <ASSIGNED LABEL>
no (0)

$$$$
>  <COMPOUND>
CCOC(=O)C1=C[C@]2(CC)CCCN3CCc4c(n1c1ccccc41)[C@@H]32

>  <ASSIGNED LABEL>
no (0)

$$$$
>  <COMPOUND>
CCOC(=O)c1cccnc1

>  <ASSIGNED LABEL>
no (0)

$$$$
>  <COMPOUND>
CC(C)(O)c1ccc(CNC(=O)c2cccnc2Oc2ccc(F)cc2)cc1

>  <ASSIGNED LABEL>
no (0)

$$$$
>  <COMPOUND>
CCCCC1=NC2(CCCC2)C(=O)N1Cc1ccc(-c2ccccc2-c2nn[nH]n2)cc1

>  <ASSIGNED LABEL>
no (0)

$$$$
